Data origin: patent US20220275067A1

# testedTarget: T1, recombinant human 4R0N tau (human, UniProt P10636 2-758)
# T1 construct: also called recombinant 4R0N human tau; P10636-6
# T1 sequence (P10636 other isoform, or with tags, fused parts or gaps limits assumed): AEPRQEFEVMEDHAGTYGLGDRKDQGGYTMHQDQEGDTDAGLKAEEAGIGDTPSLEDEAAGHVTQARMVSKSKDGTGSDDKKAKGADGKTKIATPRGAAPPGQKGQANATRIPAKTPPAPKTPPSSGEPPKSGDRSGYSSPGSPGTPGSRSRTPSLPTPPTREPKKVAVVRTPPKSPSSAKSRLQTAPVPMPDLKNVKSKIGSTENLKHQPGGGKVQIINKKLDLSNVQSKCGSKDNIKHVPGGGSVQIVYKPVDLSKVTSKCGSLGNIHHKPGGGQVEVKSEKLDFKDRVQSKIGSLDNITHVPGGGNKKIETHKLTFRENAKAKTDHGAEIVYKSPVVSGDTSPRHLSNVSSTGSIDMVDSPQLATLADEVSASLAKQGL
# testDescription: SPR Biacore T200; antibody captured by anti-human Fc; tau as analyte; global 1:1 fit
Hi there, I'd appreciate the recorded pKd for every entry that follows.
One number for each entry, as −log10 of the molar value.

Examples with their reported pKd follow.
hu9F5VHv10/hu9F5VLv9_DIM8 (antibody, V domains shown) VH: EVQLVQSGAEVKKPGATVKISCKASGFNIKDDYMNWVKQRPEKGLEWIGWIDPENGDTEYASKFQGRATMTADTSTNTAYMELSSLRSEDTAVYYCTTSNGWGQGTLVTVSS VL: DIQMTQSPFSLPVTPGESASISCRSSKSLGHSNGITYLYWYQQKPGQSPQLLIYQKSNRASGVPDRFSSSGSGTDFTLKISRVEAEDVGVYYCAQNIELPLTFGQGTKLEIK    9.07
hu9F5VHv9/hu9F5VLv8_DIM29 (antibody, V domains shown) VH: EVQLVQSGAEVKKPGATVKISCKASGFNIKDDYMNWVQQRPGKGLEWIGWIDPENGDTEYASKFQGRATMTADTSTNTAYMELSSLRSEDTAVYYCTTSNGWGQGTLVTVSS VL: DIQMTQSPFSLPVTPGESASISCRSSKSLSHSNGITYLYWYQQKPGQSPQLLIYQMSNRASGVPNRFSSSGSGTDFTLKISRVEAEDVGVYYCAQNIELPLTFGQGTKLEIK    9.57

Kindly consider the entry below.
Prompt line: Quick one: pKd of hu9F5VHv9/hu9F5VLv8_DIM2 (antibody, V domains shown) VH: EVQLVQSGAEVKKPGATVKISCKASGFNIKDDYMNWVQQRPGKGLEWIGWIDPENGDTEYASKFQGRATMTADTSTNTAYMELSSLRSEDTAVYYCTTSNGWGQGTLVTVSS VL: DIQMTQSPFSLPVTPGESASISCRSSKSLSHSNGITYLYWYQQKPGQSPQLLIYQGSNRASGVPNRFSSSGSGTDFTLKISRVEAEDVGVYYCAQNIELPLTFGQGTKLEIK ?
Response line: 9.52
